Value source: PubChem BioAssay (NCI)

- Test system: SNB-19 CNS
- assay summary: NCI-60 one-dose screen, 48 h (100 = growth as untreated, 0 = no growth, -100 = all killed)
- condition parameters: 10 µM unless noted
This is part of a sample that, as a whole, favours compounds with a hit. Of some 83,000 tested, about 20% had one in any assay.
readout kind: growth (%)

>>> numeric_result("Cn1ccnc1C(=O)/C=C/c1ccc(NC(=O)Nc2ccc(Cl)cc2)cc1")
78.9
>>> numeric_result("COc1cccc(OC)c1-c1nnn(C)c1C(=S)N1CCN(c2ccc([N+](=O)[O-])cc2Cl)CC1")
92.7
>>> numeric_result("CC1=C(C)C(=O)C(Nc2cccc(C(F)(F)F)c2)=C(Cl)C1=O")
92.4
>>> numeric_result("CCOc1ccc2nc(NC(=O)c3ccc(C(F)(F)F)cc3)sc2c1")
101
>>> numeric_result("NS(=O)(=O)c1ccc(Nc2nc(Nc3ccccc3)nc(-n3nc(-c4ccccc4)cc3-c3ccccc3)n2)cc1")
50.1
